What log10 of IC50 was measured for each of the following?
- TARGET_SYSTEM: EGFR L858R (Homo sapiens (Human), UniProt P00533, L858R)
- Sequence (P00533 25-1210 L858R): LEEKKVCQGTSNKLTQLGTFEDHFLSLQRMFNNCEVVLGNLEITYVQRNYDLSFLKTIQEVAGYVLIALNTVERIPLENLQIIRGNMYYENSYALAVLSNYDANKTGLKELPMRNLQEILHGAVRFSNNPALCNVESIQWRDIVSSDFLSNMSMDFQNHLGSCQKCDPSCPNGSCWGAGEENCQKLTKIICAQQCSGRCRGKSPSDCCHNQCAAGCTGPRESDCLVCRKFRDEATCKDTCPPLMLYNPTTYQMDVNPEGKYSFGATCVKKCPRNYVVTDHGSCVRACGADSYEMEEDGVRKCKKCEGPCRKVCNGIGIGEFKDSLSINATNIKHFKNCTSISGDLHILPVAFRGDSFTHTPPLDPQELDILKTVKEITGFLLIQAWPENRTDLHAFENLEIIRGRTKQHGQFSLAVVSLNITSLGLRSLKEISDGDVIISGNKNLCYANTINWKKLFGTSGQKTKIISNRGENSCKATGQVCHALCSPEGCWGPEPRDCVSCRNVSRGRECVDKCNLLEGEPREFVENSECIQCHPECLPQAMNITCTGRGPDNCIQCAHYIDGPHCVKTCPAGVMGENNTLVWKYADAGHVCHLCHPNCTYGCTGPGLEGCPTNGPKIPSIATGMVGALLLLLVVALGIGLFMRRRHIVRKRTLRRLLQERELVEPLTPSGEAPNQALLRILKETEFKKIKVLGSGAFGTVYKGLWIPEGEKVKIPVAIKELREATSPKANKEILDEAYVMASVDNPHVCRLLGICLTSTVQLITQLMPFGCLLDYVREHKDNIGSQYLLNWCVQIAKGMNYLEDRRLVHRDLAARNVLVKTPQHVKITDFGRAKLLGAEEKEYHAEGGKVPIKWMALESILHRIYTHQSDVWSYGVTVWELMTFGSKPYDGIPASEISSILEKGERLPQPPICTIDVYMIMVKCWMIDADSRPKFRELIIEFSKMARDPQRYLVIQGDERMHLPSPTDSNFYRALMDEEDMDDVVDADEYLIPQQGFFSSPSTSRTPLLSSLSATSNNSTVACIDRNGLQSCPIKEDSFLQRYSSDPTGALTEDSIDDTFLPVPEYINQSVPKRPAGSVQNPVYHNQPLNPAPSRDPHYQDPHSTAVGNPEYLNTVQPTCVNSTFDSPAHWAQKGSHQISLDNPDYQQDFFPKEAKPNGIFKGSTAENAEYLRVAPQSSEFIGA
- EXPERIMENT_NOTES: HTRF-based EGFR biochemical assay (L858R)
- SETTINGS: 100 μM ATP
Could you please treat all values as log10 of IC50 in nM?

Hey, quick one: what's log10 of IC50 for each of these?
1. CN1CCC(c2ccc(-c3cc4c(cn3)CN(C(C(=O)Nc3nccs3)c3cccc(F)c3)C4=O)cc2)CC1 (stereo not drawn) [Compound 6]
2. CN1CCC(c2ccc(-c3cnc4c(c3)C(=O)N(C(C(=O)Nc3nccs3)c3cccc(F)c3)C4)cn2)CC1 (stereo not drawn) [Compound 18]
3. CN1CCC(c2ccc(-c3ccc4c(n3)C(=O)N(C(C(=O)Nc3nccs3)c3cccc(F)c3)C4)cc2)CC1 (stereo not drawn) [Compound 13]
4. CN1CCC(c2ccc(-c3ccc4c(n3)C(=O)N(C(C(=O)Nc3ccccn3)c3cc(F)ccc3O)C4)cc2)CC1 (stereo not drawn) [Compound 21]
5. CN1CCN(c2ccc(-c3cc4c(cn3)CN(C(C(=O)Nc3nccs3)c3cccc(F)c3)C4=O)cc2)CC1 (stereo not drawn) [Compound 7]
6. CN1CCN(c2ccc(-c3ccc4c(n3)C(=O)N(C(C(=O)Nc3nccs3)c3cccc(F)c3)C4)cc2)CC1 (stereo not drawn) [Compound 14]
7. CN1CCC(c2ccc(-c3ccc4c(n3)C(=O)N(C(C(=O)Nc3nccs3)c3cccc(F)c3)C4)cc2F)CC1 (stereo not drawn) [Compound 20]

[reply]
1. 1.78
2. 2.10
3. 0.85
4. 0.60
5. 2.48
6. 1.51
7. 0.70

// each compound listed below needs its log10 of IC50
1. CN1CCN(c2ccc(-c3cnc4c(c3)C(=O)N(C(C(=O)Nc3nccs3)c3cccc(F)c3)C4)cc2)CC1 (stereo not drawn) [Compound 10]
2. CN1CCC(c2ccc(-c3ccc4c(n3)C(=O)N(C(C(=O)Nc3nccs3)c3cccc(F)c3)C4)cc2)C1 (stereo not drawn) [Compound 16]

[reply]
1.66
0.78

====

- TARGET_SYSTEM: EGFR L858R (Homo sapiens (Human), UniProt P00533, L858R)
- EXPERIMENT_NOTES: HTRF-based EGFR biochemical assay (L858R)
- SETTINGS: 100 μM ATP
- Description: EGFR biochemical activity measurements were carried out using the homogeneous time-resolved fluorescence (HTRF) assay (Cisbio). […] Reactions were quenched with the addition of 10 μL of phospho-tyrosine antibody-Europium(III) cryptate (1-to-180 volume ratio) and Streptavidin-XL665 (46.7 nM) in EDTA-containing detection buffer, then incubated at room temperature for 1 hour, and read with a PHERAstar plate reader (excitation =337 nm, emission =620 nm and 665 nm).
Consider the cut-off 5 nM. If the recorded IC50 is strictly smaller, the label is Fulfilled; if not, the label is Not fulfilled.

CN1CCN(c2ccc(-c3ccc4c(n3)C(=O)N(C(C(=O)Nc3nccs3)c3cccc(F)c3)C4)cn2)CC1 (stereo not shown); Not fulfilled

[ask] API: query returns whether the molecule falls strictly under 5 nM in IC50. Query: CN1CCC(c2ccc(-c3ccc4c(n3)C(=O)N(C(C(=O)Nc3nccs3)c3cccc(F)c3)C4)cn2)CC1 (stereo not shown)
[reply] Not fulfilled

[ask] Take the molecule CN1CCC(c2ccc(-c3cnc4c(c3)C(=O)N(C(C(=O)Nc3nccs3)c3cccc(F)c3)C4)cc2)C1 (stereo not shown) and say whether its IC50 is less than 5 nM.
[reply] Not fulfilled

[ask] Hello, I'm reviewing records and need to know if IC50 of CN1CCN(c2ccc(-c3cnc4c(c3)C(=O)N(C(C(=O)Nc3nccs3)c3cccc(F)c3)C4)cn2)CC1 (stereo not shown) is below 5 nM. Could you check?
[reply] Not fulfilled

[ask] Please check: IC50 for CN1CCC(c2ccc(-c3ccc4c(n3)C(=O)N(C(C(=O)Nc3nccs3)c3cccc(F)c3)C4)c(F)c2)CC1 (stereo not shown) , strictly under 5 nM or not?
[reply] Fulfilled

Every entry's value here was drawn from patent US12377080B2.
